# Assay Protocol: Intrinsic clearance in human liver microsomes assessed per mg protein in presence of NADPH by LC-MS/MS analysis
# Format: ADME, microsome
# Cond: read-out: CLH
The compounds listed here are annotated with their microsomal CLint.
Provide only the numeric value, understood in µL/min/mg.

Use the examples below as a reference point.
{"Item Smiles": "CCC(C)(C)C(=O)N(O)Cc1ccccc1", "Unit Tag": "µL/min/mg", "microsomal CLint": 5.4}
{"Item Smiles": "CCC(C)(C)C(=O)N(O)Cc1ccc(F)cc1", "Unit Tag": "µL/min/mg", "microsomal CLint": 3.9}
{"Item Smiles": "CCC(C)(C)C(=O)N(O)Cc1ccc(F)c(F)c1", "Unit Tag": "µL/min/mg", "microsomal CLint": 6.5}
{"Item Smiles": "CCC(C)(C)C(=O)N(O)Cc1cc(F)cc(F)c1F", "Unit Tag": "µL/min/mg", "microsomal CLint": 10.4}
{"Item Smiles": "CCC(C)(C)C(=O)N(O)Cc1ccc(F)c(F)c1F", "Unit Tag": "µL/min/mg", "microsomal CLint": 13.1}
{"Item Smiles": "CCC(C)(C)C(=O)N(O)Cc1ccc(F)cc1F", "Unit Tag": "µL/min/mg", "microsomal CLint": 3.5}

Turning now to a further record.
Note to self: microsomal CLint recorded for CCC(C)(C)C(=O)N(O)Cc1cc(F)c(F)c(F)c1 was 10.5

====

# Assayed Target: Cytochrome P450 2C19 (Homo sapiens, UniProt P33261)
# Sequence (P33261 whole entry): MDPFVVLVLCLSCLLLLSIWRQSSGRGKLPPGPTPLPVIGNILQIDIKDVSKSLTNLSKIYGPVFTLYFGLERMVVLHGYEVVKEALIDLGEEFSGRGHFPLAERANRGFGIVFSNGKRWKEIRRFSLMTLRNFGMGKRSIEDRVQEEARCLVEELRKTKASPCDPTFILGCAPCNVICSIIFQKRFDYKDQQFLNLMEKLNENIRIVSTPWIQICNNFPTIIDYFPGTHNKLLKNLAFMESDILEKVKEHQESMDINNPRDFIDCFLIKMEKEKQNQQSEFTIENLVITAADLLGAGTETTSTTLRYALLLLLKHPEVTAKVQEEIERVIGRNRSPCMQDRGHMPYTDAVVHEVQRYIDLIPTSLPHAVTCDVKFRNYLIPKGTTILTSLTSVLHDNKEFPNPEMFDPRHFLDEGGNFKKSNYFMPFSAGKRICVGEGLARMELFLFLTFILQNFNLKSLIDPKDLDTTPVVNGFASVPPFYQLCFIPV
Measured Quantity: IC50

Entry CCC(C)(C)C(=O)N(O)Cc1ccccc1 — recorded IC50 = > 50 µM

====

# Assay Protocol: Half life in mouse liver microsomes in presence of NADPH by LC-MS/MS analysis
# Assay type: ADME, microsome
Measured Quantity: half-life (min)
API: value field is a number in min; no unit string.

Illustrative cases are given below, each with its answer.
{"Item Smiles": "CCC(C)(C)C(=O)N(O)Cc1cc(F)cc(F)c1F", "half-life [min]": 9.21}
{"Item Smiles": "CCC(C)(C)C(=O)N(O)Cc1ccc(F)c(F)c1", "half-life [min]": 11.3}
{"Item Smiles": "CCC(C)(C)C(=O)N(O)Cc1ccc(F)cc1F", "half-life [min]": 23.2}
{"Item Smiles": "CCC(C)(C)C(=O)N(O)Cc1ccc(F)c(F)c1F", "half-life [min]": 13.9}
{"Item Smiles": "CCC(C)(C)C(=O)N(O)Cc1cc(F)c(F)c(F)c1", "half-life [min]": 7.89}

Noted for CCC(C)(C)C(=O)N(O)Cc1ccc(F)cc1 : its half-life reads 24.1

Input CCC(C)(C)C(=O)N(O)Cc1ccccc1 . Output half-life: 35.5

====

Documented half-life across a set of compounds
# Assay Protocol: Half life in human liver microsomes in presence of NADPH by LC-MS/MS analysis
# Type: ADME, microsome
Return type: number; implicit unit h.

{"Item Smiles": "CCC(C)(C)C(=O)N(O)Cc1ccc(F)c(F)c1F", "Unit Tag": "h", "half-life": 0.882}

Reported half-life for CCC(C)(C)C(=O)N(O)Cc1cc(F)cc(F)c1F was 1.11

The compound listed as CCC(C)(C)C(=O)N(O)Cc1ccccc1 shows half-life equal to 2.13

The value of half-life measured for the compound CCC(C)(C)C(=O)N(O)Cc1ccc(F)c(F)c1 turned out to be 1.78

// sample CCC(C)(C)C(=O)N(O)Cc1ccc(F)cc1F , its half-life was 3.3

Sure, the documented half-life for CCC(C)(C)C(=O)N(O)Cc1cc(F)c(F)c(F)c1 is 1.1

Recorded result, CCC(C)(C)C(=O)N(O)Cc1ccc(F)cc1 , half-life: 2.97

====

# Assayed Target: Receptor-interacting serine/threonine-protein kinase 1 (Homo sapiens)
# Sequence (Q13546 whole entry): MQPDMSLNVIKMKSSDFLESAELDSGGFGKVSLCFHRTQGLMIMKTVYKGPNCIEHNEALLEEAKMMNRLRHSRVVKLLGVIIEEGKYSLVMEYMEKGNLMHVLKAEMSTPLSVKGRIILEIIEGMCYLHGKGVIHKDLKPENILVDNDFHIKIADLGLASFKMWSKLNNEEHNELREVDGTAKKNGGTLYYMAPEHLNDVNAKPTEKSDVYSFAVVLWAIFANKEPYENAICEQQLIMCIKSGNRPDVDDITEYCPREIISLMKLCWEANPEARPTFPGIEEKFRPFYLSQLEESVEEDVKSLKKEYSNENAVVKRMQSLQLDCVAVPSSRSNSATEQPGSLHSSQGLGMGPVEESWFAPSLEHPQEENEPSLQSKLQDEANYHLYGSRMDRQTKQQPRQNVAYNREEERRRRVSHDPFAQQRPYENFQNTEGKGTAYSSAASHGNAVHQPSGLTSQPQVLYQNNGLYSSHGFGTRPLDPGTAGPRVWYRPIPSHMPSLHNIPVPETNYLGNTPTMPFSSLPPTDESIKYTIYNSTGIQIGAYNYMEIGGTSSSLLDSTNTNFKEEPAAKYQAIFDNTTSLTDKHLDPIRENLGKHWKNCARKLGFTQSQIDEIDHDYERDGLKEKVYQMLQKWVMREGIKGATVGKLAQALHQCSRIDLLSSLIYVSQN
# Assay Protocol: Inhibition of recombinant GST-tagged RIP1 (unknown origin) after 4 hrs by ADP-Glo kinase assay
Measured Quantity: IC50
Express your answer as a number followed by its unit.

// IC50 lookup, molecule = CN1C(=O)C(Cc2c[nH]c3ccccc23)NC1=S (stereo unspecified) [NECROSTATIN] , result: 760 nM

====

List of microsomal CLint values.
# Assay Protocol: Intrinsic clearance in mouse liver microsomes assessed per mg protein in presence of NADPH by LC-MS/MS analysis
# Assay type: ADME, microsome
# Cond: read-out: CLH
The answer is to be given in µL/min/mg; state only the numeric part.

// known answers, use as guide
{"Item Smiles": "CCC(C)(C)C(=O)N(O)Cc1ccc(F)cc1", "microsomal CLint (µL/min/mg)": 28.8}
{"Item Smiles": "CCC(C)(C)C(=O)N(O)Cc1ccc(F)c(F)c1", "microsomal CLint (µL/min/mg)": 61.4}
{"Item Smiles": "CCC(C)(C)C(=O)N(O)Cc1cc(F)c(F)c(F)c1", "microsomal CLint (µL/min/mg)": 87.8}
{"Item Smiles": "CCC(C)(C)C(=O)N(O)Cc1ccc(F)c(F)c1F", "microsomal CLint (µL/min/mg)": 49.9}
{"Item Smiles": "CCC(C)(C)C(=O)N(O)Cc1cc(F)cc(F)c1F", "microsomal CLint (µL/min/mg)": 75.3}

Quick note, microsomal CLint for CCC(C)(C)C(=O)N(O)Cc1ccc(F)cc1F landed at 29.9

microsomal CLint reading for CCC(C)(C)C(=O)N(O)Cc1ccccc1 : 19.5

====

# Assayed Target: Cytochrome P450 2D6 (Homo sapiens, UniProt P10635)
# Sequence (P10635 whole entry): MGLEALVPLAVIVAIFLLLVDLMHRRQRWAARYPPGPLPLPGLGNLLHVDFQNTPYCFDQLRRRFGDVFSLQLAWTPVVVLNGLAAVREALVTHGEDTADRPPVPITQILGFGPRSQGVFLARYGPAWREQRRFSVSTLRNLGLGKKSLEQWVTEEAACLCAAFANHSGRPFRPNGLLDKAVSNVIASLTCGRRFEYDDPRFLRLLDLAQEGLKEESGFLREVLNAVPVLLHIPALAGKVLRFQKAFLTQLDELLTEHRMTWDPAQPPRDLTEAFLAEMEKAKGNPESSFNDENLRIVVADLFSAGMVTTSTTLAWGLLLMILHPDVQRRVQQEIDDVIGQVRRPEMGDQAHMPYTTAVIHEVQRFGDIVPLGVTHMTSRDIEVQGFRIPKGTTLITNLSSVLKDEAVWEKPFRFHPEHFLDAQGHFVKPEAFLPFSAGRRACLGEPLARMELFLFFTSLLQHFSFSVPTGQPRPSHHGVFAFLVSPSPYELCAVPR
Measured Quantity: IC50

CCC(C)(C)C(=O)N(O)Cc1ccccc1 on Cytochrome P450 2D6 (Homo sapiens, UniProt P10635) gives IC50 = > 50 µM

====

# Assay Protocol: Apparent permeability from basolateral to apical side in MDCK cells harboring MDR1
# Assay type: ADME, cell-based, Canis lupus familiaris
# Cond: dog
Measured Quantity: Papp B→A

In plain terms, CCC(C)(C)C(=O)N(O)Cc1ccccc1 has a documented Papp B→A of > 30 ×10⁻⁶ cm/s

====

# Assay Protocol: Half life in human liver microsomes in presence of NADPH by LC-MS/MS analysis
# Format: ADME, microsome
Measured Quantity: half-life

Some compounds with known half-life results, for comparison:
{"Compound": "CCC(C)(C)C(=O)NCc1ccccc1", "Measured Quantity": "half-life", "Result": "> 3.33 h"}
{"Compound": "CCC(C)(C)C(=O)NC(CO)c1ccccc1 (stereo not drawn)", "Measured Quantity": "half-life", "Result": "> 3.33 h"}

Alright, here's another compound for you.
Field half-life (entry CCC(C)(C)C(=O)NC(C)c1ccccc1 (stereo not drawn) ) reads > 3.33 h
